- Test system: mitochondria or chloroplast of Chlamydomonas reinhardtii
- procedure-text: Subcellular localization of Venus reporter by epifluorescence microscopy (manual targeting assignment)
- Format: cell-based
- run-parameters: manual targeting assignment of the Venus reporter construct in Chlamydomonas: Neither / Mitochondria / Chloroplast / Dual, (partial) = partial targeting
- Experimental: In a bid to keep peptidase recognition sites intact, C-terminal elements were designed to start 10 residues upstream of the cleavage site, even though this slightly truncates TP helices. […] Peptide variants are used to drive the subcellular localization of a Venus fluorescent reporter protein, which was assessed using fluorescence microscopy; in Figure 2, an executive overview of observed Venus localization is presented for all constructs. […]
outcome-measure: Localisation

MQVTMKSSAVSGQRVMGWIRDFGRRIERVGQHTRDATIQTIAVAQQAANVAATLRGLTQTAESFRGVSSQFFDAPNGPSVKQVLIEDEW [c.S1D.R.m]; Dual
MGRIPVRAIRRAGAAIGRGLRAINIASTAHDVYSFFRPRHRRR [SIM.R]; Neither
MGGARVATR [CH.R]; Neither
MQVTMKSSAVSGQRVGRIPVRAIRRAGAAIGRGLRAINIASTAHDVYSFFRPRHRRRLTQTAESFRGVSSQFFDAPNGPSVKQVLIEDEW [c.SIM.R.m]; Chloroplast
MQVTMKSSAVSGQRVMLKKVGQSLVPFAKAG [c.MH.K]; Neither
MQVTMKSSAVSGQRVDEVNNDNCRIRFRGDISSESDRMNINYSVRRAQLQVVASSRKQMGRWRSIDAGVDASDDQ [c.RP2.R.c]; Neither

Give me Localisation for each of these sequences, listed below.
1. MGRIPVRAIRRAGAAIGRGLRAINIASTAHDVYSFFRPRHRRRLTQTAESFRGVSSQFFDAPNGPSVKQVLIEDEW [SIM.R.m]
2. MQVTMKSSAVSGQRVRYYGNGVSCNRRGCSVDWGRAIGIIGNNAAANLTTGGRAGWRGLTQTAESFRGVSSQFFDAPNGPSVKQVLIEDEW [c.EHF.R.m]
3. MGGARVATRSVRRAQLQVVASSRKQMGRWRSIDAGVDASDDQ [CH.R.c]

Reply text:
1: Neither; 2: Chloroplast; 3: Chloroplast

Each sequence below has a reported value. Please supply its Localisation.
1. MGWIRDFGRRIERVGQHTRDATIQTIAVAQQAANVAATLRGLTQTAESFRGVSSQFFDAPNGPSVKQVLIEDEW [S1D.R.m]
2. MQVTMKSSAVSGQRVMLKRVGQSLVPFARAG [c.MH.R]

Reply text:
Neither
Neither

// for each sequence below, give its Localisation
1. MGWIRDFGRRIERVGQHTRDATIQTIAVAQQAANVAATLRG [S1D.R]
2. MQVTMKSSAVSGQRVMLKRVGQSLVPFARAGLTQTAESFRGVSSQFFDAPNGPSVKQVLIEDEW [c.MH.R.m]
3. MLKRVGQSLVPFARAGSVRRAQLQVVASSRKQMGRWRSIDAGVDASDDQ [MH.R.c]

Reply text:
1. Neither
2. Neither
3. Dual

====

- Test system: mitochondria or chloroplast of Chlamydomonas reinhardtii
- procedure-text: Subcellular localization of Venus reporter by epifluorescence microscopy (manual targeting assignment)
- Type: cell-based
- run-parameters: targeting of the Venus reporter fused to the peptide, expressed in Chlamydomonas reinhardtii; manual assignment from epifluorescence microscopy; full or partial
outcome-measure: Localisation

Worked examples, 4 sequences total:
MQVTMKSSAVSGQRVMKYYGNGVSCNKKGCSVDWGKAIGIIGNNAAANLTTGGKAGWKGSVRRAQLQVVASSRKQMGRWRSIDAGVDASDDQ [c.EHF.K.c]; Chloroplast
MQVTMKSSAVSGQRVMGKIPVKAIKKAGAAIGKGLRAINIASTAHDVYSFFKPKHKKKLTQTAESFRGVSSQFFDAPNGPSVKQVLIEDEW [c.SIM.K.m]; Chloroplast
MQVTMKSSAVSGQRVFLPLLAGLAANFLPRIFCRITRRCLTQTAESFRGVSSQFFDAPNGPSVKQVLIEDEW [c.B1E.R.m]; Dual
MGKIPVKAIKKAGAAIGKGLRAINIASTAHDVYSFFKPKHKKKLTQTAESFRGVSSQFFDAPNGPSVKQVLIEDEW [SIM.K.m]; Neither

Hi! Can you tell me Localisation for each of these sequences?
1. MQVTMKSSAVSGQRVMGLFSKFNKKKIKSGLIKIIKTAGKEAGLEALRTGIDVIGCKIKGECLTQTAESFRGVSSQFFDAPNGPSVKQVLIEDEW [c.E1S.K.m]
2. MQVTMKSSAVSGQRVNIVVYWNFTLWHMDINARNAGCDGEGSSVRRAQLQVVASSRKQMGRWRSIDAGVDASDDQ [c.RP1.K.c]
3. MGWIRDFGKRIERVGQHTRDATIQTIAVAQQAANVAATLKGSVRRAQLQVVASSRKQMGRWRSIDAGVDASDDQ [S1D.K.c]
4. MQVTMKSSAVSGQRVMSFLTTFKDLAIKAAKSAGQSVLSTLSCKLSNTC [c.B2I.K]
5. MQVTMKSSAVSGQRVFLPLLAGLAANFLPRIFCRITRRC [c.B1E.R]
6. MQVTMKSSAVSGQRVMGLLLDTLKGAAKDIAGIALEKLKCKITGCKPSVRRAQLQVVASSRKQMGRWRSIDAGVDASDDQ [c.R2G.K.c]
7. MQVTMKSSAVSGQRVALWMTLLKKVLKAAAKAALNAVLVGANASVRRAQLQVVASSRKQMGRWRSIDAGVDASDDQ [c.DS4.K.c]

Reply text:
1: Chloroplast; 2: Neither; 3: Chloroplast; 4: Mitochondria (partial); 5: Mitochondria; 6: Mitochondria (partial); 7: Neither

Record Localisation per entry; entries follow.
1. MSFLTTFKDLAIKAAKSAGQSVLSTLSCKLSNTCLTQTAESFRGVSSQFFDAPNGPSVKQVLIEDEW [B2I.K.m]
2. MQVTMKSSAVSGQRVMGLFSRFNRRRIRSGLIRIIRTAGREAGLEALRTGIDVIGCRIRGECLTQTAESFRGVSSQFFDAPNGPSVKQVLIEDEW [c.E1S.R.m]

Reply text:
1. Mitochondria
2. Chloroplast
